Target: recombinant human 5-HT2C receptor (Homo sapiens, UniProt P28335)
Sequence (P28335 33-458): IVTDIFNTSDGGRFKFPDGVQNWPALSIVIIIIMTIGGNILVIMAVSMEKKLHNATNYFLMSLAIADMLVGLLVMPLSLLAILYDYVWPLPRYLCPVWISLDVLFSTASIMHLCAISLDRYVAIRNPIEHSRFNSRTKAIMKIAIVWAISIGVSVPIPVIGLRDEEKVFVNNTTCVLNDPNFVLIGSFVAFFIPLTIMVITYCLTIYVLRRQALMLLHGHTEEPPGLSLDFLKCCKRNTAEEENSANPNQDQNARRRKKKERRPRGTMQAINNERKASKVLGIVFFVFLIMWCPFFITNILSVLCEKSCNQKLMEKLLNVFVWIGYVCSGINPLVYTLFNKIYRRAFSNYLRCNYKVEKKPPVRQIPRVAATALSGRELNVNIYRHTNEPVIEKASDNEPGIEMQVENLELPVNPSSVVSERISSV
Assay: biochemical
Format: binding
Settings: read-out: h5-HT2C [125I]DOI Ki (nM) ± SEM; HEK-h5-HT2C membranes
Assignment: determine reported Ki for the given molecules.
Give bare numbers, in nM.

COc1ccccc1N1CCN(CCN(C(=O)C2CCCCC2)c2ccccn2)CC1 :: 3000

Read the next record carefully.
Field request: Ki | item: C[C@H](N)Cn1ccc2cc(F)c(Cl)cc21
7.3

----------
Biological target: recombinant human dopamine transporter (Homo sapiens)
Sequence (Q01959 whole entry): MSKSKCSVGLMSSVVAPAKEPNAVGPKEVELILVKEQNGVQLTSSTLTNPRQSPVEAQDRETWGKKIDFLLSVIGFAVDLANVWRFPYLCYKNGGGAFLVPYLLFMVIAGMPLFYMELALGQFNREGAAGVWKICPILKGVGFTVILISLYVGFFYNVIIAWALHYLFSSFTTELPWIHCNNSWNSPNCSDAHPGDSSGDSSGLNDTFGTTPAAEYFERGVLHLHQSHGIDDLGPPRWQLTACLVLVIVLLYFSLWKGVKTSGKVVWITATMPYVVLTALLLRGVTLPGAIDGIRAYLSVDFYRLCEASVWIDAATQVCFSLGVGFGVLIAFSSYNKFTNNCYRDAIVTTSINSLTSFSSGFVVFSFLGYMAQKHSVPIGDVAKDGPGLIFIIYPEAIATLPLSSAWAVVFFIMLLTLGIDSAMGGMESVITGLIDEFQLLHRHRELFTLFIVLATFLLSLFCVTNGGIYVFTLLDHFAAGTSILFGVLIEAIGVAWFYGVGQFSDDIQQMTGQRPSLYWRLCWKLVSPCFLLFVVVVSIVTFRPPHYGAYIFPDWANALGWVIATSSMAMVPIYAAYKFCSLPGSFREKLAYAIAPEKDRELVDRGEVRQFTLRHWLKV
Experiment: [125I]RTI-55 binding to HEK-hDAT cells
pKi: −log10 of the molar value.
measurement kind: pKi

# query: pKi of entry C=C[C@H]1C[N@@]2CC[C@H]1C[C@H]2[C@H](O)c1ccnc2ccc(OC)cc12
< 5.08

Just for reference, paper PMC4097020 is where these values come from.
